# method.notes: in vitro
# assay.context: human, Caco-2, pH 7.4, Percentage recovery B→A, basolateral to apical
reported.metric: recovery at 2 h, 5 µM (%)
Answers are plain numbers, in %.

Request: May I ask what recovery at 2 h, 5 µM has been recorded for CN(C)CCc1c[nH]c2cccc(OC(=O)CCCC(=O)Oc3cccc4[nH]cc(CCN(C)C)c34)c12 [Compound I-24] ?
Result: 105

----------
# method.notes: Intestinal mucosal permeation using Caco-2 cell monolayers
# assay.context: human, Caco-2, pH 7.4
Where a name gives a salt, the structure may show the parent alone.
reported.metric: efflux ratio at 2 h, 5 µM
Give bare numbers.

Request: Please give the measured efflux ratio at 2 h, 5 µM for this molecule: CC(C)N(CCc1c[nH]c2cccc(OC(=O)CCCC(=O)Oc3cccc4[nH]cc(CCN(C(C)C)C(C)C)c34)c12)C(C)C [Compound I-37, dihydrochloride]
Result: 21

----------
# method.notes: Dog plasma stability
# assay.context: dog, plasma
Counter-ions that a name gives are not always drawn.
Provide the reported remaining at 0.5 h of each item.
Give bare numbers, in %.

[
  {
    "compound": "CC[C@H](C)C(=O)O[C@H]1C[C@@H](C)C=C2C=C[C@H](C)[C@H](CC[C@@H]3C[C@@H](O)CC(=O)O3)[C@H]21 [Lovastatin, reference compound]",
    "remaining at 0.5 h (%)": 101
  }
]

Request: I'd like to know its remaining at 0.5 h. The compound in question is CC(C)N(CCc1c[nH]c2cccc(OC(=O)CCCC(=O)Oc3cccc4[nH]cc(CCN(C(C)C)C(C)C)c34)c12)C(C)C [Compound I-37, dihydrochloride]
Result: 82.6

----------
# method.notes: Dog plasma stability
# assay.context: dog, plasma
Counter-ions that a name gives are not always drawn.
reported.metric: half-life (h)
One number for each entry, in h.

Request: Which value of half-life has been reported for CC(C)N(CCc1c[nH]c2cccc(OC(=O)CCCC(=O)Oc3cccc4[nH]cc(CCN(C(C)C)C(C)C)c34)c12)C(C)C [Compound I-37, dihydrochloride] in the records?
Result: 1.91

----------
# method.notes: in vitro
# assay.context: mouse, microsomes
Counter-ions that a name gives are not always drawn.
reported.metric: microsomal CLint at 2 µM

[
  {
    "compound": "CC(C)N(CCc1c[nH]c2cccc(OC(=O)CCCC(=O)Oc3cccc4[nH]cc(CCN(C(C)C)C(C)C)c34)c12)C(C)C [Compound I-37, dihydrochloride]",
    "microsomal CLint at 2 µM": "> 307 µL/min/mg"
  }
]

Lab note: next compound to report on.
Request: Please look up its microsomal CLint at 2 µM: "CN(C)CCc1c[nH]c2cccc(OC(=O)CCCC(=O)Oc3cccc4[nH]cc(CCN(C)C)c34)c12"
Result: > 307 µL/min/mg

----------
# method.notes: in vitro
# assay.context: dog, plasma
reported.metric: remaining at 0.5 h (%)
Numbers only, in %.

Request: Field request: remaining at 0.5 h | item: "CN(C)CCc1c[nH]c2cccc(OC(=O)CCCC(=O)Oc3cccc4[nH]cc(CCN(C)C)c34)c12"
Result: 32.9

----------
Please respond with reported remaining at 2 h for every item in the list.
# method.notes: Dog plasma stability
# assay.context: dog, plasma
Counter-ions that a name gives are not always drawn.
Enter the number, and then the unit.

[
  {
    "compound": "CC(C)N(CCc1c[nH]c2cccc(OC(=O)CCCC(=O)Oc3cccc4[nH]cc(CCN(C(C)C)C(C)C)c34)c12)C(C)C [Compound I-37, dihydrochloride]",
    "remaining at 2 h": "50.5%"
  }
]

Request: Please give the measured remaining at 2 h for this compound: CC[C@H](C)C(=O)O[C@H]1C[C@@H](C)C=C2C=C[C@H](C)[C@H](CC[C@@H]3C[C@@H](O)CC(=O)O3)[C@H]21 [Lovastatin, reference compound]
Result: 40.8%

----------
# method.notes: in vitro
# assay.context: rat, plasma
reported.metric: remaining at 2 h

Request: Using the record for "CN(C)CCc1c[nH]c2cccc(OC(=O)CCCC(=O)Oc3cccc4[nH]cc(CCN(C)C)c34)c12" , report its remaining at 2 h.
Result: 0%

----------
# method.notes: in vitro
# assay.context: human, liver microsomes, Remaining Percentage after 60 min, human liver microsomes, without cofactors
reported.metric: remaining at 1 h, 2 µM (%)
Numbers only, in %.

Request: Query (compound): "O=C(O)Cc1ccccc1Nc1c(Cl)cccc1Cl" ; field requested: remaining at 1 h, 2 µM
Result: 95.9

----------
# method.notes: in vitro
# assay.context: rat, plasma
reported.metric: remaining at 1 h (%)
One number for each entry, in %.

Request: // remaining at 1 h lookup, key: "CN(C)CCc1c[nH]c2cccc(OC(=O)CCCC(=O)Oc3cccc4[nH]cc(CCN(C)C)c34)c12"
Result: 0

----------
# method.notes: Mouse plasma stability
# assay.context: mouse, plasma
Counter-ions that a name gives are not always drawn.
reported.metric: remaining at 4 h (%)
Numbers only, in %.

[
  {
    "molecule": "CC(C)N(CCc1c[nH]c2cccc(OC(=O)CCCC(=O)Oc3cccc4[nH]cc(CCN(C(C)C)C(C)C)c34)c12)C(C)C [Compound I-37, dihydrochloride]",
    "remaining at 4 h, %": 0
  }
]

Would you kindly look at the next entry?
Request: So what's the measured remaining at 4 h for this one? CC(C)[N+](C)(CCOC(=O)C1c2ccccc2Oc2ccccc21)C(C)C [Propantheline, reference compound]
Result: 0.87

----------
# method.notes: in vitro
# assay.context: human, plasma
reported.metric: remaining at 1 h (%)
Numbers only, in %.

Request: What measured remaining at 1 h goes with CN(C)CCc1c[nH]c2cccc(OC(=O)CCCC(=O)Oc3cccc4[nH]cc(CCN(C)C)c34)c12 [Compound I-24] ?
Result: 0

----------
# method.notes: in vitro
# assay.context: dog, plasma
reported.metric: remaining at 4 h (%)
Answers are plain numbers, in %.

Request: For the compound CN(C)CCc1c[nH]c2cccc(OC(=O)CCCC(=O)Oc3cccc4[nH]cc(CCN(C)C)c34)c12 [Compound I-24] , what remaining at 4 h is on record?
Result: 0

----------
# method.notes: Human plasma stability
# assay.context: human, plasma
Structures can show the parent of a compound that is named as a salt.
Can you tell me remaining at 3 h for the items I'm about to list?

[
  {
    "compound": "CC(C)[N+](C)(CCOC(=O)C1c2ccccc2Oc2ccccc21)C(C)C [Propantheline, reference compound]",
    "result": "0%"
  }
]

Request: Quick check: remaining at 3 h of CC(C)N(CCc1c[nH]c2cccc(OC(=O)CCCC(=O)Oc3cccc4[nH]cc(CCN(C(C)C)C(C)C)c34)c12)C(C)C [Compound I-37, dihydrochloride] ?
Result: 0%

----------
# method.notes: in vitro
# assay.context: mouse, plasma
reported.metric: remaining at 2 h
Respond with a number, then the unit of measure.

Request: # input compound: CN(C)CCc1c[nH]c2cccc(OC(=O)CCCC(=O)Oc3cccc4[nH]cc(CCN(C)C)c34)c12 [Compound I-24] ; wanted: its remaining at 2 h
Result: 0%

----------
# method.notes: in vitro
# assay.context: dog, plasma
reported.metric: remaining at 1 h (%)
Give bare numbers, in %.

Request: If you can, please state the reported remaining at 1 h value of "CN(C)CCc1c[nH]c2cccc(OC(=O)CCCC(=O)Oc3cccc4[nH]cc(CCN(C)C)c34)c12" .
Result: 11.2

----------
# method.notes: Rat liver microsomes stability
# assay.context: Remaining Percentage after 60 min, with cofactors
reported.metric: remaining at 1 h, 2 µM (%)
Give bare numbers, in %.

Request: // returns reported remaining at 1 h, 2 µM for input "O=C(O)Cc1ccccc1Nc1c(Cl)cccc1Cl"
Result: 7.11

----------
# method.notes: Rat plasma stability
# assay.context: rat, plasma
Counter-ions that a name gives are not always drawn.
Record form. Attribute: remaining at 4 h. Fill in for each entry.
Just so you know, I need the unit written after the number.

[
  {
    "molecule": "CC[C@H](C)C(=O)O[C@H]1C[C@@H](C)C=C2C=C[C@H](C)[C@H](CC[C@@H]3C[C@@H](O)CC(=O)O3)[C@H]21 [Lovastatin, reference compound]",
    "reported.metric": "remaining at 4 h",
    "result": "0%"
  }
]

Request: Quick check: remaining at 4 h of CC(C)N(CCc1c[nH]c2cccc(OC(=O)CCCC(=O)Oc3cccc4[nH]cc(CCN(C(C)C)C(C)C)c34)c12)C(C)C [Compound I-37, dihydrochloride] ?
Result: 0%

----------
# method.notes: Intestinal mucosal permeation using Caco-2 cell monolayers
# assay.context: human, Caco-2, pH 7.4, Percentage recovery B→A, basolateral to apical
Structures can show the parent of a compound that is named as a salt.
reported.metric: recovery at 2 h, 5 µM (%)
Numbers only, in %.

Request: For the compound shown here, CC(C)N(CCc1c[nH]c2cccc(OC(=O)CCCC(=O)Oc3cccc4[nH]cc(CCN(C(C)C)C(C)C)c34)c12)C(C)C [Compound I-37, dihydrochloride] , give the reported recovery at 2 h, 5 µM.
Result: 107
